- SYSTEM TESTED: SNX27, Q96L92
- TEST SUMMARY: holdup assay
- Parameters: key: below the threshold = too weak to quantify, mostly under pKd 3.1 to 4
- EXPERIMENTAL CONDITIONS: plain residues with an end cap or a label only (N-terminal biotin on a linker: ado-ado)
Please mark t if the recorded pKd is equal to or greater than 4, and f if it falls below.

Some entries whose results are on file:
Task: Hi team, for ELSATVTTDC [TRIP6, Q15654] , is the recorded pKd at or above 4?
Output: t

Task: # bool: pKd of TRKRSGEAAV [PFKM, P08237] >= 4
Output: f

Task: Item SRSVVESDEL [MYPN, Q86TC9] with pKd of 4 or above?
Output: t

New cases:
Task: Record KSRVAFFEEL [NF2, P35240] ; criterion: pKd no lower than 4. Met?
Output: f

Task: Could you please find out whether APIAGFSSFV [SDK2, Q58EX2] has pKd that meets 4 or exceeds it?
Output: t
